test: The drug is tested on Bacteroides sp. WH2 strain: WH2 for biotransformation. The drug concentrations were measured before and after a 12-h incubation by liquid-chromatography-coupled mass spectrometry (LC–MS); details: bacteroides sp. wh2, 12 h, 2 µM
endpoint: Bacterial Biotransformation

Guide cases for Bacterial Biotransformation, answers given:
1) CCN(CC)CCCC(C)Nc1c2ccc(Cl)cc2nc2ccc(OC)cc12 (centres undefined) :: Compound NOT metabolized
2) COc1cc(C(=O)NCc2ccc(OCCN(C)C)cc2)cc(OC)c1OC [TRIMETHOBENZAMIDE] :: Compound NOT metabolized
3) Cc1nc2n(c(=O)c1CCN1CCC(c3noc4cc(F)ccc34)CC1)CCCC2O (centres undefined) :: Compound NOT metabolized
4) CC(=O)Nc1ccc(OC(C)=O)cc1 [DIACETAMATE] :: Compound metabolized
5) O=P(O)(O)O.c1ccc(CN(CC2=NCCN2)c2ccccc2)cc1 [ANTAZOLINE PHOSPHATE] :: Compound NOT metabolized

Ask: Bench note: what Bacterial Biotransformation did CCN(CC)C(=O)/C(C#N)=C/c1cc(O)c(O)c([N+](=O)[O-])c1 show?
Result: Compound metabolized

Ask: I'd like to know its Bacterial Biotransformation. The compound in question is Cc1cc(C)cc(OCC2CNC(=O)O2)c1 (centres undefined)
Result: Compound NOT metabolized

Ask: Would you mind telling me what Bacterial Biotransformation value was observed for Cc1ccnc2c1NC(=O)c1cccnc1N2C1CC1 ?
Result: Compound NOT metabolized

Ask: May I ask what Bacterial Biotransformation has been recorded for CC(=O)Oc1ccc(C(c2ccc(OC(C)=O)cc2)c2ccccn2)cc1 ?
Result: Compound metabolized
